Experiment: Cytotoxicity against HEL cells assessed as alteration in cell morphology after 3 days
Assay type: cell-based
Details: human
readoutKind: MCC at 72 h

See these solved cases before continuing.
1) Cc1cn([C@@H]2O[C@H](CO[Si](C(C)C)(C(C)C)C(C)C)[C@@]3(OS(=O)(=O)C=C3NC(=O)NC(=O)c3ccccc3)[C@H]2O[Si](C)(C)C(C)(C)C)c(=O)n(C)c1=O
≥ 100 µM
2) Cc1cn([C@@H]2O[C@H](CO[Si](C)(C)C(C)(C)C)[C@@]3(OS(=O)(=O)C=C3NC(=O)NC(=O)c3ccccc3)[C@H]2O[Si](C)(C)C(C)(C)C)c(=O)n(C)c1=O
≥ 80 µM

Next up:
Record request: MCC at 72 h value, item Cc1cn([C@@H]2O[C@H](CO)[C@@]3(OS(=O)(=O)C=C3NC(=O)NC(=O)c3ccccc3)[C@H]2O[Si](C)(C)C(C)(C)C)c(=O)n(C)c1=O
20 µM

* * *

Assay: Cytotoxicity against HEL cells assessed as reduction in cell growth after 3 days
Type: cell-based
Conditions: human
Documented CC50 at 72 h across a set of compounds

1. Cc1cn([C@@H]2O[C@H](COC(=O)c3ccccc3)[C@@]3(OS(=O)(=O)C=C3NC(=O)NC(=O)c3ccccc3)[C@H]2O)c(=O)n(C)c1=O
> 100 µM
2. Cc1cn([C@@H]2O[C@H](CO[Si](C)(C)C(C)(C)C)[C@@]3(OS(=O)(=O)C=C3NC(=O)N(C(=O)Nc3ccccc3)c3ccccc3)[C@H]2O[Si](C)(C)C(C)(C)C)c(=O)n(C)c1=O
13 µM

Next up:
Record request: CC50 at 72 h value, item CC(C)(C)[Si](C)(C)OCCC1(CO[Si](C)(C)C(C)(C)C)OS(=O)(=O)C=C1NC(=O)NC(=O)c1ccccc1 (stereo not drawn)
> 100 µM

* * *

Documented EC50 across a set of compounds
System: Human betaherpesvirus 5
Test: Antiviral activity against HCMV 6 with […] mutation in HEL cells assessed as reduction of virus-induced cytopathogenicity
Type: functional, organism-based
Settings: Human betaherpesvirus 5, HEL
Numbers only; they are read as µg/mL.

1. Cc1cn([C@@H]2O[C@H](CO[Si](C)(C)C(C)(C)C(C)C)[C@@]3(OS(=O)(=O)C=C3NC(=O)NC(=O)c3ccccc3)[C@H]2O[Si](C)(C)C(C)(C)C)c(=O)n(C)c1=O
0.86
2. Nc1ncnc2c1ncn2CCOCP(=O)(O)O
90
3. Nc1ncnc2c1ncn2C[C@@H](CO)OCP(=O)(O)O
0.91
4. Nc1nc2c(ncn2COCCO)c(=O)[nH]1
91
5. Nc1nc2c(ncn2COC(CO)CO)c(=O)[nH]1
9.4

# query: EC50 | item Nc1ccn(C[C@@H](CO)OCP(=O)(O)O)c(=O)n1.O.O | system: Human betaherpesvirus 5
0.49

# query: EC50 | item O=C(O)P(=O)(O)O | system: Human betaherpesvirus 5
34

# query: EC50 | item Nc1nc(N)c2ncn(CCOCP(=O)(O)O)c2n1 | system: Human betaherpesvirus 5
26

# query: EC50 | item Cc1cn([C@@H]2O[C@H](CO[Si](C)(C)C(C)(C)C(C)C)[C@@]3(OS(=O)(=O)C=C3NC(=O)NC(=O)c3ccccc3)[C@H]2O[Si](C)(C)C(C)(C)C(C)C)c(=O)n(C)c1=O | system: Human betaherpesvirus 5
5.5

* * *

Documented CC50 at 72 h across a set of compounds
Assay: Cytotoxicity against HEL cells assessed as reduction in cell growth after 3 days
Format: cell-based
Conditions: human
Numbers only; they are read as µM.

1) Cc1cn([C@@H]2O[C@H](CO[Si](C)(C)C(C)(C)C)[C@@]3(OS(=O)(=O)C=C3NC(=O)NCc3ccccc3)[C@H]2O[Si](C)(C)C(C)(C)C)c(=O)n(C)c1=O
4.1

Next up:
Record request: CC50 at 72 h value, item CCOC(=O)NC(=O)NC1=CS(=O)(=O)O[C@@]12[C@@H](CO[Si](C)(C)C(C)(C)C)O[C@@H](n1cc(C)c(=O)n(C)c1=O)[C@@H]2O[Si](C)(C)C(C)(C)C
14

* * *

Test system: Human betaherpesvirus 5
Assay: Antiviral activity against HCMV 521 with […] and DNA polymerase mutation in HEL cells assessed as reduction of virus-induced cytopathogenicity
Format: functional, organism-based
Details: Human betaherpesvirus 5, HEL
readoutKind: EC50 (µg/mL)
Numbers only; they are read as µg/mL.

See these solved cases before continuing.
1. Nc1nc2c(ncn2COC(CO)CO)c(=O)[nH]1
6
2. Nc1nc(N)c2ncn(CCOCP(=O)(O)O)c2n1
6.7
3. Nc1ncnc2c1ncn2C[C@@H](CO)OCP(=O)(O)O
2.3
4. Nc1ncnc2c1ncn2CCOCP(=O)(O)O
20
5. Nc1ccn(C[C@@H](CO)OCP(=O)(O)O)c(=O)n1.O.O
0.79
6. Cc1cn([C@@H]2O[C@H](CO[Si](C)(C)C(C)(C)C(C)C)[C@@]3(OS(=O)(=O)C=C3NC(=O)NC(=O)c3ccccc3)[C@H]2O[Si](C)(C)C(C)(C)C(C)C)c(=O)n(C)c1=O
2.9
7. Cc1cn([C@@H]2O[C@H](CO[Si](C)(C)C(C)(C)C(C)C)[C@@]3(OS(=O)(=O)C=C3NC(=O)NC(=O)c3ccccc3)[C@H]2O[Si](C)(C)C(C)(C)C)c(=O)n(C)c1=O
0.67
8. Nc1nc2c(ncn2COCCO)c(=O)[nH]1
7.7

# query: EC50 | item O=C(O)P(=O)(O)O | system: Human betaherpesvirus 5
29

* * *

Test: Cytotoxicity against HEL cells assessed as reduction in cell growth after 3 days
Assay type: cell-based
Details: human
Documented CC50 at 72 h across a set of compounds

See these solved cases before continuing.
1. Cc1cn([C@@H]2O[C@H](COC(=O)c3ccccc3)[C@@]3(OS(=O)(=O)C=C3NC(=O)NC(=O)c3ccccc3)[C@H]2O[Si](C)(C)C(C)(C)C)c(=O)n(C)c1=O
100 µM
2. Cc1cn([C@@H]2O[C@H](CO[Si](C(C)C)(C(C)C)C(C)C)[C@@]3(OS(=O)(=O)C=C3NC(=O)NC(=O)c3ccccc3)[C@H]2O[Si](C)(C)C(C)(C)C)c(=O)n(C)c1=O
> 100 µM
3. Cc1cn([C@@H]2O[C@H](CO[Si](C)(C)C(C)(C)C)[C@@]3(OS(=O)(=O)C=C3NC(=O)NC(=O)c3ccccc3)[C@H]2O[Si](C)(C)C(C)(C)C(C)C)c(=O)n(C)c1=O
≥ 100 µM

Next up:
Record request: CC50 at 72 h value, item Cc1cn([C@@H]2O[C@H](CO)[C@@]3(OS(=O)(=O)C=C3NC(=O)NC(=O)c3ccccc3)[C@H]2O)c(=O)n(C)c1=O
> 50 µM

* * *

Tested on: Human betaherpesvirus 5
Experiment: Antiviral activity against acyclovir-resistant HCMV with DNA polymerase mutant in HEL cells assessed as reduction of virus-induced cytopathogenicity
Type: functional, organism-based
Conditions: Human betaherpesvirus 5, HEL
Documented log10 EC50 across a set of molecules
Please be aware that the numbers have been log10-transformed from EC50 in µg/mL.

1. Nc1nc(N)c2ncn(CCOCP(=O)(O)O)c2n1 [PMEDAP]
1.58
2. Nc1nc2c(ncn2COCCO)c(=O)[nH]1 [ACYCLOVIR]
2.11
3. Cc1cn([C@@H]2O[C@H](CO[Si](C)(C)C(C)(C)C(C)C)[C@@]3(OS(=O)(=O)C=C3NC(=O)NC(=O)c3ccccc3)[C@H]2O[Si](C)(C)C(C)(C)C(C)C)c(=O)n(C)c1=O
0.43

# query: log10 EC50 | item Nc1ncnc2c1ncn2CCOCP(=O)(O)O [ADEFOVIR] | system: Human betaherpesvirus 5
2.14

# query: log10 EC50 | item Nc1nc2c(ncn2COC(CO)CO)c(=O)[nH]1 [GANCICLOVIR] | system: Human betaherpesvirus 5
-0.27

# query: log10 EC50 | item Nc1ccn(C[C@@H](CO)OCP(=O)(O)O)c(=O)n1.O.O [CIDOFOVIR] | system: Human betaherpesvirus 5
-1.16

# query: log10 EC50 | item O=C(O)P(=O)(O)O [FOSCARNET] | system: Human betaherpesvirus 5
1.57

# query: log10 EC50 | item Cc1cn([C@@H]2O[C@H](CO[Si](C)(C)C(C)(C)C(C)C)[C@@]3(OS(=O)(=O)C=C3NC(=O)NC(=O)c3ccccc3)[C@H]2O[Si](C)(C)C(C)(C)C)c(=O)n(C)c1=O | system: Human betaherpesvirus 5
0.04

# query: log10 EC50 | item Nc1ncnc2c1ncn2C[C@@H](CO)OCP(=O)(O)O | system: Human betaherpesvirus 5
-1.09

* * *

Assay: Cytotoxicity against HEL cells assessed as reduction in cell growth after 3 days
Format: cell-based
Conditions: human
Documented CC50 at 72 h across a set of compounds

See these solved cases before continuing.
1. Cc1cn([C@@H]2O[C@H](CO[Si](C)(C)C(C)(C)C)[C@@]3(OS(=O)(=O)C=C3NC(=O)NC(=O)c3ccccc3)[C@H]2O)c(=O)n(C)c1=O
22 µM
2. Cc1cn([C@@H]2O[C@H](CO[Si](C)(C)C(C)(C)C(C)C)[C@@]3(OS(=O)(=O)C=C3NC(=O)NC(=O)c3ccccc3)[C@H]2O[Si](C)(C)C(C)(C)C)c(=O)n(C)c1=O
> 50 µM

Next up:
Record request: CC50 at 72 h value, item CC(=O)O[C@H]1[C@H](n2cc(C)c(=O)n(C)c2=O)O[C@H](COC(=O)c2ccccc2)[C@@]12OS(=O)(=O)C=C2NC(=O)NC(=O)c1ccccc1
> 100 µM

All figures here come from ChEMBL document CHEMBL1140035.
